The values you see were collected from ChEMBL document CHEMBL3046127.

Record form. Attribute: mortality. Fill in for each entry.
system: Tetranychus cinnabarinus; assay: Insecticidal activity against Tetranychus cinnabarinus (carmine spider mite) assessed as insect mortality at 300 mg/mL; format: functional; parameters: dose or concentration left out as unconfirmed
Numbers only, in %.

CCOP(=O)(OCC)SCCCCCCCCSP(=O)(OCC)OCC | 87.7
CCOP(=O)(OCC)SCCCCCCCCCCN1C(=O)c2ccccc2C1=O | 92.2
CCOP(=O)(OCC)SCCCCN1C(=O)c2ccccc2C1=O | 88.9
CCOP(=O)(OCC)SCCCCCCCN1C(=O)c2ccccc2C1=O | 89.3

Q) Retrieve mortality on Tetranychus cinnabarinus; query CCOP(=O)(OCC)SCCCCCCSP(=O)(OCC)OCC
A) 92.4
